Where do these numbers come from? They come from patent US20120071496A1.

- measurement notes: logP (HCOOH)
- Type: physicochemical
- test settings: Table 2
Reported logP (HCOOH) is given for each of the following molecules.
No unit in the answer, only the number.

# example entries with known answers
- molecule: "O=C(Nc1c(NC2CC2)ncnc1-c1ccc(F)cc1)c1cccnc1OCC(F)(F)F"
  logP (HCOOH): 2.12
- molecule: "CCc1ncccc1C(=O)Nc1c(NC(C)(C)C)ncnc1-c1ccc(C#N)cc1"
  logP (HCOOH): 1.81
- molecule: "CCc1ncccc1C(=O)Nc1c(NC2CC2)nc(C)nc1-c1ccc(F)cc1"
  logP (HCOOH): 0.88
- molecule: "CC(C)Nc1ncnc(-c2ccc(OC(F)(F)F)cc2)c1NC(=O)c1cccnc1Cl"
  logP (HCOOH): 2.05
- molecule: "CCc1ncccc1C(=O)Nc1c(NC(C)(C)C)ncnc1-c1ccc(C(F)(F)F)cc1"
  logP (HCOOH): 2.34

If you can, please state the reported logP (HCOOH) value of `CCc1ncccc1C(=O)Nc1c(NC2CC2)ncnc1-c1ccc(F)c(F)c1` .
1.34

If you can, please state the reported logP (HCOOH) value of `CCc1ncccc1C(=O)Nc1c(NC2CC2)ncnc1-c1ccc(COc2ccc(C(F)(F)F)cn2)cc1` .
1.77

If you can, please state the reported logP (HCOOH) value of `O=C(Nc1c(NC2CC2)ncnc1-c1ccc(Cl)cc1)c1cccnc1OCC(F)(F)F` .
2.48

If you can, please state the reported logP (HCOOH) value of `O=C(Nc1c(NC2CC2)ncnc1-c1ccc(F)cc1)c1cc(Cl)cnc1C1CC1` .
2.16

If you can, please state the reported logP (HCOOH) value of `N#Cc1ccc(-c2ncnc(NC3CC3)c2NC(=O)c2cccnc2OCC(F)(F)F)cc1` .
2.11

If you can, please state the reported logP (HCOOH) value of CCc1ncccc1C(=O)Nc1c(NC(C)C2(Cl)CC2)ncnc1-c1ccc(Cl)cc1 (stereo not drawn) .
2.26

If you can, please state the reported logP (HCOOH) value of `CCc1ncccc1C(=O)Nc1c(NC2CC2)nc(C)nc1-c1ccc(Cl)cc1Cl` .
1.34

If you can, please state the reported logP (HCOOH) value of `CCCc1ncccc1C(=O)Nc1c(NC2CC2)ncnc1-c1ccc(Cn2nc(C(F)(F)F)nc2C(F)(F)F)cc1` .
1.9

If you can, please state the reported logP (HCOOH) value of `CCc1ncccc1C(=O)Nc1c(NC2CC2)ncnc1-c1ccc(SC(F)(F)F)cc1` .
1.4

If you can, please state the reported logP (HCOOH) value of `O=C(Nc1c(NC2CC2)ncnc1-c1ccc(Cl)cc1)c1cccnc1C(F)F` .
1.58

If you can, please state the reported logP (HCOOH) value of `O=C(Nc1c(NC2CC2)ncnc1-c1ccc(F)cc1F)c1cccnc1CC(F)(F)F` .
1.83

If you can, please state the reported logP (HCOOH) value of `CCc1ncccc1C(=O)Nc1c(NC2CC2)ncnc1-c1ccccc1Cl` .
1.07

If you can, please state the reported logP (HCOOH) value of `CCOc1ncccc1C(=O)Nc1c(NC2CC2)ncnc1-c1ccc(C#N)cc1` .
1.80
